Taken from ChEMBL document CHEMBL4725475.

TARGET_OF_ASSAY: Phosphatidylinositol 4,5-bisphosphate 3-kinase catalytic subunit gamma isoform (Homo sapiens, UniProt P48736)
Sequence (P48736 whole entry, canonical isoform): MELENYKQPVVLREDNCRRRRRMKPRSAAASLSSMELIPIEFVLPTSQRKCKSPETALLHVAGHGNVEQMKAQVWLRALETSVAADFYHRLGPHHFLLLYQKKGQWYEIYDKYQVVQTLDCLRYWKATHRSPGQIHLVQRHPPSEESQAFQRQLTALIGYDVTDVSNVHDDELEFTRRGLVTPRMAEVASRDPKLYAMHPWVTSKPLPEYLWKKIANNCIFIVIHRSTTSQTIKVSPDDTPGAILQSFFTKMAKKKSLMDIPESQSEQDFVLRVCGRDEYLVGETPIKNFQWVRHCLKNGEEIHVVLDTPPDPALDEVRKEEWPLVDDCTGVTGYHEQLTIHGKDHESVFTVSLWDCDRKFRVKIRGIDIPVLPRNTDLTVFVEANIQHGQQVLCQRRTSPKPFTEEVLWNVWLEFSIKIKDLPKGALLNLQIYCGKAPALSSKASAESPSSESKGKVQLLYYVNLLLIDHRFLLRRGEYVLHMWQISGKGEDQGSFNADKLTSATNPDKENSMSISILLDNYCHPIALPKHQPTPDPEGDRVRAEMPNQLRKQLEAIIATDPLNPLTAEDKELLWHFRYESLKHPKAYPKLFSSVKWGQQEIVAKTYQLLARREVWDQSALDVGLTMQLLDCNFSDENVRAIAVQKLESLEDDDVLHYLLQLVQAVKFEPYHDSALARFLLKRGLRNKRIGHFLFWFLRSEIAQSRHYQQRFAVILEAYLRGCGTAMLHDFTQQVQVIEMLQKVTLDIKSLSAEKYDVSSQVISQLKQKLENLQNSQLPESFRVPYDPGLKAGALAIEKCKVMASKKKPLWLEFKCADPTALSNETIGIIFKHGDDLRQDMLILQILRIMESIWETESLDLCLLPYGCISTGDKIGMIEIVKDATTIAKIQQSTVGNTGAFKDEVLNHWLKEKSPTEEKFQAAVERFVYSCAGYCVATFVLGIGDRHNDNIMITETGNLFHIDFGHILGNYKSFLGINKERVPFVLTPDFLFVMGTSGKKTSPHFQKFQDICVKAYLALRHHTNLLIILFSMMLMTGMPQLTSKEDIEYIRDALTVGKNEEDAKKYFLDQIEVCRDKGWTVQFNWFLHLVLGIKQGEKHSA
PROTOCOL_NOTES: Inhibition of PI3Kgamma in human THP-1 cells assessed as reduction in Akt phosphorylation at S473 residue incubated for 60 mins measured after 120 mins by alphalisa assay
Format: cell-based
pIC50: −log10 of the molar value.
QUANTITY: pIC50

Sample answers from the record:
In [3]: df
Out[3]:
                              record_smiles  quantity  observed_value
0  Cc1cc(-c2cnc3[nH]cc(-c4ccc(C(=O)O)c(N5CCCC5)c4)c3c2)cc2c1C(=O)N([C@@H](C)C1CC1)C2     pIC50            6.77
1  Cc1cc(-c2cnc3[nH]cc(-c4ccc(C(C)(C)C(=O)O)cc4)c3c2)cc2c1C(=O)N([C@@H](C)C1CC1)C2     pIC50            6.74
2  C[C@@H](C1CC1)N1Cc2cc(-c3cnc4[nH]cc(-c5cnn(C)c5)c4c3)cc(Cl)c2C1=O     pIC50            6.77
3  Cc1cc(-c2c[nH]c3ncc(-c4cc(C)c5c(c4)CN([C@@H](C)C4CC4)C5=O)cc23)ccc1C(=O)O     pIC50            7.11
4  Cc1cc(-c2cnc3[nH]cc(-c4ccc(C(=O)O)cc4)c3c2)cc2c1C(=O)N([C@@H](C)C1CC1)C2     pIC50            6.85

(1) Cc1cc(-c2cnc3[nH]cc(-c4cc(C)c(C(=O)O)c(C5CC5)c4)c3c2)cc2c1C(=O)N([C@@H](C)C1CC1)C2
(2) Cc1cc(-c2cnc3[nH]cc(-c4ccc(C(N)=O)cc4)c3c2)cc2c1C(=O)N([C@@H](C)C1CC1)C2
(3) Cc1cc(-c2cnc3[nH]cc(-c4ccncc4)c3c2)cc2c1C(=O)N(C(C)(C)C)C2
Order the records so the highest pIC50 appears first and the lowest last. Form entry: labels listed in requested order.
1, 2, 3

====

Species: Homo sapiens
PROTOCOL_NOTES: Selectivity index, ratio of inhibition for PI3Kalpha (unknown origin) to inhibition for PI3K p120 gamma (unknown origin) using phosphatidylinositol 4,5-bisphosphate as substrate in presence of ATP incubated for 60 mins by ADP-Glo assay
QUANTITY: Selectivity ratio

Sample answers from the record:
In [3]: df
Out[3]:
                              record_smiles  observed_value
0  Cc1cc(-c2cnc3[nH]cc(-c4ccncc4)c3c2)cc2c1C(=O)N([C@@H](C)C1CC1)C2             379
1  Cc1cc(-c2cnc3[nH]cc(-c4ccncc4)c3c2)cc2c1C(=O)N(C1CCOCC1)C2               7
2  COc1cc(-c2c[nH]c3ncc(-c4cc(C)c5c(c4)CN([C@@H](C)C4CC4)C5=O)cc23)ccc1C(=O)O             369

(a) CC(C)c1cc(-c2cnc3[nH]cc(-c4cnn(C)c4)c3c2)cc2c1C(=O)N([C@@H](C)C1CC1)C2
(b) Cc1cc(-c2cnc3[nH]cc(-c4ccnc(N)c4)c3c2)cc2c1C(=O)N([C@@H](C)C1CC1)C2
(c) Cc1cc(-c2cnc3[nH]cc(-c4ccncc4)c3c2)cc2c1C(=O)N(C(C)(C)C1CC1)C2
(d) C[C@@H](C1CC1)N1Cc2cc(-c3cnc4[nH]cc(-c5cnn(C)c5)c4c3)cc(C(F)(F)F)c2C1=O
Arrange the 4 entries by Selectivity ratio so the values rise. Form entry: labels listed in requested order.
c, b, a, d
(c: 74, b: 214, a: 898, d: 2800)

(P) Cc1cc(-c2cnc3[nH]cc(-c4cc(C)c(C(=O)O)c(C5CC5)c4)c3c2)cc2c1C(=O)N([C@@H](C)C1CC1)C2
(Q) Cc1cc(-c2cnc3[nH]cc(-c4ccc(C(=O)O)c(C(C)C)c4)c3c2)cc2c1C(=O)N([C@@H](C)C1CC1)C2
# return whichever of P and Q has the smaller Selectivity ratio Lab note: record the label of whichever item you select.
Q
(Q: 224, P: 691)
